measurement-target: B-cell lymphoma 6 protein (Homo sapiens, UniProt P41182)
experiment-summary: Inhibition of human BCL6 BTP domain measured by TR-FRET assay
pIC50: −log10 of the molar value.
attribute-measured: pIC50

INSERT INTO results (molecule_smiles, observed) VALUES
  ('N#Cc1cnn2c(Nc3ccc4c(c3)CCC(=O)N4)cc(N3CCC[C@H]3CO)nc12', 6.43),
  ('Cn1c(=O)n(CCC(C)(C)O)c2cc(Nc3ccnc(Cl)c3C#N)ccc21', 6.07),
  ('N#Cc1cnn2c(Nc3ccc4c(c3)CCC(=O)N4)cc(N3CCC[C@H]3CC(=O)O)nc12', 6.46);

a. N#Cc1cnn2c3cc(nc12)N1C[C@H](C[C@H]1CO)OC/C=C/COc1cc(cc2c1NC(=O)CC2)N3
b. Nc1ncnc(Nc2ccccc2Cl)n1
Field: lower pIC50 | Options: a / b Field: selected label. Fill in the label of the entry you choose.
b
(b: 3.08, a: 8.54)
